Ref: ChEMBL document CHEMBL4028806

# Tested on: Trachea
# method_summary: Induction of tracheal constriction in Wistar rat at 1 uM
property_name: Activity

CCc1cc(-c2noc(-c3cc(OC)nc(C(CC)CC)c3)n2)cc(C)c1OC[C@@H](O)CNC(=O)CO < 5%

INPUT: Which Activity value is on record for CCc1cc(-c2noc(-c3cc(CC(C)C)nc(OC)c3)n2)cc(C)c1OC[C@@H](O)CNC(=O)CO ?
OUTPUT: 133%

INPUT: What does the data say about its Activity? Entry: CCc1cc(-c2noc(-c3cc(OC)nc(C(CC)CC)c3)n2)cc(C)c1OC[C@@H](O)CO
OUTPUT: < 5%

INPUT: Reported Activity, compound CCc1cc(-c2noc(-c3cc(CC(C)C)nc(OC)c3)n2)cc(C)c1OC[C@@H](O)CO : ____
OUTPUT: < 5%

====

# test_target: Sphingosine 1-phosphate receptor 1 (Homo sapiens, UniProt P21453)
# Sequence (P21453 whole entry): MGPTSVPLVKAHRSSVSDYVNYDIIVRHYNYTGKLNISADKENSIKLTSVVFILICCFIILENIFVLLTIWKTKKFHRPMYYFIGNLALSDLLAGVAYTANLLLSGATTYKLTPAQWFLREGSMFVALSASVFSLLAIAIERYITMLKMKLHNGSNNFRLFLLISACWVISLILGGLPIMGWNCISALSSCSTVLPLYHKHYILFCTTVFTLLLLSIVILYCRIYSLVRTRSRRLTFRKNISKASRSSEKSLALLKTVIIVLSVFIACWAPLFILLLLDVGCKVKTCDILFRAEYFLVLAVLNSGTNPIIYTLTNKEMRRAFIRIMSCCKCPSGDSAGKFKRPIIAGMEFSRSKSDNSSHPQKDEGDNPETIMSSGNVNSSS
# method_summary: Displacement of [33P]-S1P from human S1P1 receptor expressed in CHO cell membranes
pIC50: −log10 of the molar value.
property_name: pIC50

The examples below pair each entry with its known result.
CCCCCCCCc1ccc(CC[C@@H](N)CCP(=O)(O)O)cc1 8.08
CCCCCCCCc1ccc(CNCCCP(C)(=O)O)cc1 7.92

P. CCCCCCCCc1ccc(CN2CC(C(=O)O)C2)cc1
Q. CCCCCCCCc1ccc(CNCCCC(=O)O)cc1
INPUT: API: POST /compare with P and Q ; response names the item with higher pIC50. Label of pick, please.
OUTPUT: Q

====

# test_target: Sphingosine 1-phosphate receptor 3 (Homo sapiens, UniProt Q99500)
# Sequence (Q99500 whole entry): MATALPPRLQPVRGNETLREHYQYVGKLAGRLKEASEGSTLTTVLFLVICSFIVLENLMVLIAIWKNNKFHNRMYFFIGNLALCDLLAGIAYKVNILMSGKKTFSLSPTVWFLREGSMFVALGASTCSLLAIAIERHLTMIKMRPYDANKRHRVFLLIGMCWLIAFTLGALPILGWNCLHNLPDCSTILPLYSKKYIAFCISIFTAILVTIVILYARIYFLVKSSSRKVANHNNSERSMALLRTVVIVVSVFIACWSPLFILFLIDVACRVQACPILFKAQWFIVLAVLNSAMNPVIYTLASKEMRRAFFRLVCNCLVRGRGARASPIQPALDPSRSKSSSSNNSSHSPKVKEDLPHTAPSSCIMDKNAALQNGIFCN
# method_summary: Agonist activity at human S1P3 receptor expressed in CHO cell membranes after 45 mins by [35S] GTPgammaS binding based scintillation counting analysis
pEC50: −log10 of the molar value.
property_name: pEC50

INPUT: Any idea what its pEC50 is? The compound is N#CC1(NC(=O)[C@@H](O)c2ccc(-c3noc(-c4onc(-c5ccccc5)c4C(F)(F)F)n3)cc2)CC1
OUTPUT: < 4.51

====

# method_summary: Half life in po dosed Sprague-Dawley rat
# Format: ADME, organism-based
# details: in vivo
property_name: half-life (h)

A. CC(C)Cc1ccc(-c2nc(-c3ccc(CN4CC(C(=O)O)C4)cc3)no2)cc1
B. CC(C)Cc1ccc(-c2nc(-c3ccc(CN4CC(C(=O)O)C4)c(F)c3)no2)cc1
INPUT: # return whichever of A and B has the smaller half-life Identify your selection by its label.
OUTPUT: B
(B: 5.5 h, A: 11 h)

====

# Species on record: Homo sapiens
# method_summary: Toxicity in human assessed as reduction in heart rate at 10 mg measured on day 1
# details: in vivo
property_name: Activity

INPUT: For the molecule CCC/N=C1\S/C(=C\c2ccc(OC[C@H](O)CO)c(Cl)c2)C(=O)N1c1ccccc1C , what Activity is on record?
OUTPUT: 10 to 12 bpm

====

# method_summary: Half life in iv dosed Sprague-Dawley rat
# Format: ADME, organism-based
# details: in vivo
property_name: half-life (h)

P. CC(C)Cc1ccc(-c2nc(-c3ccc(CN4CC(C(=O)O)C4)c(F)c3)no2)cc1
Q. CC(C)Cc1ccc(-c2nc(-c3ccc(CN4CC(C(=O)O)C4)cc3)no2)cc1
INPUT: Thinking about recorded half-life values, which is higher, P or Q ? Could you answer with the label of the item you picked?
OUTPUT: Q
